Tested on: SK-MEL-28 melanoma
experiment: NCI-60 one-dose screen, 48 h (100 = growth as untreated, 0 = no growth, -100 = all killed)
test-conditions: 10 µM unless noted
This is part of a sample that, as a whole, favours compounds with a hit. Of some 83,000 tested, about 20% had one in any assay. Calls of active or inactive are those of the source. How the source made its calls: active means growth percent below 10; inactive means the rest.
metric: growth

I have this molecule here, Cc1nc2sccn2c1-c1nc2sccn2c1/C=C1/C(=O)Nc2ccccc21 , and I need its recorded growth.
45.3% (inactive)

Similarly, CC(=O)[C@@H]1CC[C@]2(C(N)=O)CC[C@]3(C)[C@H](CC[C@@H]4[C@@]5(C)CCCNC(C)(C)[C@@H]5CC[C@]43C)[C@@H]12 ?
95.8% (inactive)

Now consider O=C(N/N=C/c1ccc(Oc2ccccc2)cc1)c1cnn2c1NC(c1ccccc1)C2 (configuration not stated) .
56.2% (inactive)

Try this molecule next: O=C(Nc1ccccc1C(=O)N/N=C(\c1ccccc1)c1ccccn1)c1ccc(F)cc1
33.7% (inactive)

One more molecule: CC1(C)CC(O)CCCCCCOc2c(CN)cccc2NC(=O)c2nc(cnc2N)-c2ccc(cc2)S1(=O)=O (configuration not stated)
43.4% (inactive)

Same for CN(C)CCn1c2ccc(Br)cc2c2nc3ccccc3nc21
84.8% (inactive)

Same for COc1ccc2[nH]c(O)c(/C=c3/cc4c(c(-c5ccc(F)cc5)n3)=Nc3ccccc3-4)c2c1
93.9% (inactive)
